- Subject of test: NMDA receptors
- Measurement conditions: neurons clamped at −60 mV; read-out: EC50 for activation of inward current
Reported metric: pEC50
FYI, pEC50 means -log10 of a concentration in mol per litre.

GET /values?item= CN[C@H](CC(=O)O)C(=O)O [NMDA, N-methyl-D-aspartate] &system= NMDA receptors returns pEC50: 4.62
